measured.property: melting point

molecule=O=c1[nH]c2ccc(NCCCc3ccccc3)cc2o1 measured_property="melting point" result="129 to 130 °C"
molecule="COC(=O)CCSCCOC1OC(COC(C)=O)C(OC(C)=O)C(OC(C)=O)C1OC(C)=O (stereo unspecified)" measured_property="melting point" result="81 to 82 °C"
molecule=Cc1ncc([N+](=O)[O-])n1C(=O)Nc1ccccc1 measured_property="melting point" result="218 to 220 °C"
molecule=OCCc1nc(NCc2ccccn2)c2c(-c3ccccc3)csc2n1 measured_property="melting point" result="90 to 92 °C"
molecule=Cc1cccnc1CCOc1ccc(NC(=O)N(C)C)cc1 measured_property="melting point" result="123 to 125 °C"
molecule="CC#CCOc1ccc(S(=O)(=O)N(C)C(CCCSc2ccc(Cl)cc2)C(=O)NO)cc1 (stereo unspecified)" measured_property="melting point" result="144 to 146 °C"
molecule="COc1cccc(N2C(=O)C3(CCCCO3)C(=O)c3cccnc32)c1 (stereo unspecified)" measured_property="melting point" result="233 to 236 °C"
molecule=O=C1NCCc2c(OCCc3ccccc3)cccc21 measured_property="melting point" result="149 to 150 °C"
molecule=C[Si](C)(C)CCCNC(=O)n1cc(F)c(=O)[nH]c1=O measured_property="melting point" result="146 to 149 °C"
molecule="Cc1ccc(C(=O)C2=C(O)C(=O)N(c3ccc(C)nn3)C2c2ccc(C(C)C)cc2)cc1 (stereo unspecified)" measured_property="melting point" result="279 °C"
molecule=N=C(N)NC(=O)Cn1c(Cc2ccccc2)ccc1-c1ccccc1 measured_property="melting point" result="82 to 84 °C"
molecule="CCn1cc(C(=O)O)c(=O)c2cc(F)c(N3CCNC(COc4ccccc4)C3)cc21 (stereo unspecified)" measured_property="melting point" result="198 to 200 °C"
molecule=O=c1[nH]c2ccc(F)c(F)c2c(=O)o1 measured_property="melting point" result="> 240 °C"
molecule=CNc1cccc(C(C)=O)c1OCCCN1CCC(c2noc3cc(F)ccc23)CC1 measured_property="melting point" result="151 to 153 °C"
molecule=CCC(C)(CC)NC(=O)C1(O)CC(C)(C)NC(C)(C)C1 measured_property="melting point" result="127 to 129 °C"
molecule="COc1ccc(C(=O)Nc2ccccc2C(C)c2ccccn2)cc1 (stereo unspecified)" measured_property="melting point" result="125 to 126 °C"
molecule=CCn1c(-c2ccc(C(F)(F)F)cc2C(F)(F)F)nc(-c2ccncc2)c1-c1ccc(Cl)cc1 measured_property="melting point" result="148 to 150 °C"
molecule="CCC(O)(C#CC(O)c1ccc(SC)cc1)CC (stereo unspecified)" measured_property="melting point" result="64 to 65 °C"
molecule="COC(=O)CCC(NC(=O)Nc1cccc(C)c1)C(=O)O (racemic)" measured_property="melting point" result="127 °C"
molecule="COc1cc(C2CCOC2=O)c([N+](=O)[O-])cc1OC (stereo unspecified)" measured_property="melting point" result="144 to 147 °C"
molecule=O=C(Cc1c(F)cccc1C(=O)O)Nc1cccc(/C=C/c2nc(C3CCC3)cs2)c1 measured_property="melting point" result="221 to 222 °C"
molecule="Cc1c(C)c2c(c(C)c1O)CCC(C)(C(=S)N1CCN(c3ccc(Cl)cc3)CC1)O2 (stereo unspecified)" measured_property="melting point" result="154 to 155 °C"
molecule=O=C(O)COc1ccc(C2=CC(=O)CCC2)c(Cl)c1Cl measured_property="melting point" result="197 to 198 °C"
molecule="CC(=O)C1CCC2C3CCC4CC(OC(=O)OCC(Cl)(Cl)Cl)CCC4(C)C3C(NC(=O)OCC(Cl)(Cl)Cl)CC12C (stereo unspecified)" measured_property="melting point" result="174 to 176 °C"
molecule="CN1C(=O)C(N)C(c2ccccc2)=Nc2ccccc21 (stereo unspecified)" measured_property="melting point" result="178 to 179 °C"
molecule=O=C(CCc1ccccc1C(=O)O)Nc1cccc(/C=C/c2nc(C3CCC3)cs2)c1 measured_property="melting point" result="238 to 239 °C"
molecule="CC1CC(=Cc2ccccc2Cl)C(=O)O1 (stereo unspecified)" measured_property="melting point" result="48 °C"
molecule="CC(O)c1cc(C(F)(F)F)cc(S(N)(=O)=O)c1 (stereo unspecified)" measured_property="melting point" result="169 to 170 °C"
molecule=O=C(Nc1ccccc1)N1CCc2c(cnc3[nH]nc(Br)c23)C1 measured_property="melting point" result="249 to 250 °C"
molecule=CNCCOc1ccc(C(=O)NC)cc1 measured_property="melting point" result="95 to 96 °C"
molecule=CC(C)(C)OC(=O)CN1C(=O)[C@@H](N[C@@H](CCC2CCCCC2)C(=O)O)COc2ccccc21 measured_property="melting point" result="180 to 183 °C"

* * *

Catalogue of compounds with associated melting point
measured.property: melting point

compound=C=COc1ccccc1S(=O)(=O)NC(=O)c1ccc(Cc2cn(C)c3ccc(NC(=O)OC4CCCC4)cc23)c(OC)c1 measured_property="melting point" result="185 to 188 °C"
compound=COc1ccc(C=CC(=O)c2ccccc2Br)c(OC)c1 measured_property="melting point" result="91.3 to 91.8 °C"
compound="COc1ccc(CN(C)CCC2CN(C)C(=S)c3cccnc3O2)cc1 (stereo unspecified)" measured_property="melting point" result="128 to 130 °C"
compound=CCCCc1c(F)c(F)c(NN)c(F)c1F measured_property="melting point" result="80 to 81 °C"
compound=Cc1cccc(Nc2nc(N(C)C)ncc2S(=O)(=O)NC(=O)NC(C)C)c1 measured_property="melting point" result="178 to 179 °C"
compound=CCOC(=O)c1sc2nc(C)c(CC)c(=O)n2c1C measured_property="melting point" result="122 to 124 °C"
compound=CSCCC1=NS(=O)(=O)NC(N)=N1 measured_property="melting point" result="243 to 246 °C"
compound="Cc1cc(C)n(C(=O)C(Cc2ccccc2)NS(=O)(=O)c2ccc(Cl)cc2)n1 (stereo unspecified)" measured_property="melting point" result="137 to 138 °C"
compound=O=C(O)COc1ccc(Br)cc1C(=O)NCc1ccc(Br)cc1F measured_property="melting point" result="153 to 155 °C"
compound=OCCOCCN1CCN(C2=Nc3ccccc3Sc3ccccc32)CC1 measured_property="melting point" result="172 to 173 °C"
compound=c1ccc2c(c1)SSSSS2 measured_property="melting point" result="56 to 58 °C"
compound=O=[N+]([O-])c1cccc2c1nnn2SC(Cl)(Cl)Cl measured_property="melting point" result="136 to 138 °C"
compound="COC(=O)C1=C(C)NC(C)=C(c2nc(CCl)ns2)C1c1cccc([N+](=O)[O-])c1 (stereo unspecified)" measured_property="melting point" result="205 to 206 °C"
compound="O=C1NC(=O)C(Cc2ccc(OCCn3cc(C(c4ccccc4)(c4ccccc4)c4ccccc4)c4ccccc43)cc2)S1 (stereo unspecified)" measured_property="melting point" result="66.6 to 70 °C"
compound=Brc1ccc(-n2ccc3cc(OCc4ccccc4)ccc32)cc1 measured_property="melting point" result="118 °C"
compound=NC(=O)c1c(Cl)cc(Cl)c(C(=O)O)c1Cl measured_property="melting point" result="280 °C"

* * *

Reported melting point values are given for each entry in this list.
measured.property: melting point

compound=NS(=O)(=O)c1cc2[nH]c(CCCCc3ccccc3)nc2cc1Cl measured_property="melting point" result="176 to 180 °C"
compound=COc1ccc(CNC(=O)c2ccc3n2Cc2ccccc2N(C(=O)c2ccc(-c4ccccc4C)c(OC)c2)C3)cc1 measured_property="melting point" result="178 to 179 °C"
compound="O=CC1C(c2ccc(F)cc2)CCC12C=Cc1ccccc12 (configuration not stated)" measured_property="melting point" result="115 to 118 °C"
compound=CCCOC(=O)CS(=O)(=O)C=C1SC=CS1 measured_property="melting point" result="141 to 142 °C"
compound="CCc1nc2c(N)nc3cccnc3c2n1CC1(O)CCOC1 (configuration not stated)" measured_property="melting point" result="234 to 236 °C"
compound=CC(=O)N1CCC(Oc2ccc(N(C)C)cc2)CC1 measured_property="melting point" result="78 to 80 °C"
compound=CC(=O)c1ccc2c(c1)C=CC(=CCl)CO2 measured_property="melting point" result="85 to 90 °C"

* * *

measured.property: melting point

compound="CC1OC(Cn2cncn2)(c2ccc(Cl)cc2Cl)C1(C)C (configuration not stated)" measured_property="melting point" result="118 to 125 °C"
compound=NCc1cccc(Cn2ccc(OCc3ccc(F)cc3F)c(Br)c2=O)c1F measured_property="melting point" result="160 to 163 °C"
compound=O=C1c2ccccc2SC12CC2 measured_property="melting point" result="70 °C"
compound=Clc1cc2c(nn1)-c1ccccc1OC2 measured_property="melting point" result="208 °C"
compound="CC(C)CCCC(C)C1CCC2C3=C(CCC21C)C1(C)CCC(O)C(C)(C)C1CC3 (configuration not stated)" measured_property="melting point" result="154 to 155 °C"
compound=COC(C)=CC(=O)Nc1ccccc1C measured_property="melting point" result="101 °C"
compound=S=c1[nH]c2c(n1-c1ccccn1)CCCC2 measured_property="melting point" result="203 to 204 °C"
compound=CCCCCS(=O)(=O)NC(=O)/C=C/c1ccc(OCCCOCCOC)cc1Oc1ncc(C(F)(F)F)cc1Cl measured_property="melting point" result="103 to 105 °C"
compound="CCOCCn1c(N2CCCN(CCC3(c4ccc(OC)c(OC)c4)CCN(C(=O)c4cc(OC)c(OC)c(OC)c4)C3)CC2)nc2ccccc21 (configuration not stated)" measured_property="melting point" result="90 to 100 °C"
compound=CCN(CC)C(=O)c1c(C(F)F)ccc(F)c1[Si](C)(C)C measured_property="melting point" result="65 to 67 °C"
compound=CCc1ccc(Nc2c(C(=O)NOCCO)ccc(F)c2F)c(F)c1 measured_property="melting point" result="112 °C"
compound=CCOC(=O)OCC(I)=C(I)I measured_property="melting point" result="49 to 50 °C"
compound=CCCc1nc(C)c2c(=O)[nH]c(N)nn12 measured_property="melting point" result="266 °C"
compound=CCCCCC[C@H](C)Oc1ccc(-c2ccc(O)cc2)cc1 measured_property="melting point" result="100 °C"
compound="N=C(N)c1ccc2c(c1)C(CCNC(=O)c1ccc(-c3ccccn3)s1)CO2 (configuration not stated)" measured_property="melting point" result="54 to 56 °C"
compound=COc1ccc(-c2cc3cc(F)c(F)cc3[nH]2)cc1NC(=S)N[C@@H](COC(C)(C)C)C(=O)OC(C)(C)C measured_property="melting point" result="111 to 114 °C"
compound=C[C@@H](C(O)=S)c1cc(C(C)(C)C)c(O)c(C(C)(C)C)c1 measured_property="melting point" result="111 to 112 °C"
compound=COc1cc2cc3c(Nc4ccc(OCc5ccccc5)c(Cl)c4)c(C#N)cnc3cc2cc1OCCCl measured_property="melting point" result="182 to 185 °C"
compound=O=C1Cc2ccccc2-c2cc(-c3ccccc3)nn21 measured_property="melting point" result="181 to 183 °C"
compound=COCCOC(=O)c1cc(C(=O)NOC)c(O)c2ncc(Cc3ccc(F)cc3)cc12 measured_property="melting point" result="166 to 168 °C"
compound=Cc1ccccc1NC1(C#N)CCN(C(=O)c2cc(C(F)(F)F)cc(C(F)(F)F)c2)CC1 measured_property="melting point" result="141 to 142 °C"
compound=COc1cc(OC)c2cnoc2c1 measured_property="melting point" result="100 to 101 °C"
compound=COC(=O)C(OC)(OC)c1ccccc1Br measured_property="melting point" result="55 °C"
compound="O=C(O)[C@H]1C[C@H](NC(=O)N2CCc3ccccc32)c2c(Cl)cc(Cl)cc2N1 (relative stereo)" measured_property="melting point" result="251 to 252 °C"
compound="O=C1NC(C(=O)N2CC(O)CC2C(=O)O)CSCCCCCCCC1CS (configuration not stated)" measured_property="melting point" result="124 to 130 °C"
compound=C#Cc1ccc2ncsc2c1 measured_property="melting point" result="47.5 to 49 °C"
compound=C#CCNC(NCCSCc1[nH]cnc1C)=C(C#N)C#N measured_property="melting point" result="112 to 115 °C"
compound=Cc1cc(Cc2cc(C(C)(C)CC(C)(C)C)cc(-n3nc4ccccc4n3)c2O)c(O)c(C(C)(C)C)c1 measured_property="melting point" result="148 °C"
compound=O=C(O)COc1cccc2c(CCS(=O)(=O)C(c3ccccc3)c3ccccc3)coc12 measured_property="melting point" result="177 to 179 °C"
compound=CC(C)c1nc(C2CCCCC2)cc(-c2ccc(F)cc2)c1CO measured_property="melting point" result="101 to 104 °C"
compound=COC(=O)c1cc(I)ccc1NC=C1C(=O)OC(C)(C)OC1=O measured_property="melting point" result="206 to 208 °C"
compound=Cc1cc(C)c(Nc2ccnc(Nc3ccc(C#N)cc3)n2)c(C)c1 measured_property="melting point" result="217 to 218 °C"
compound=ClC(Cl)=CCOc1cc(Cl)c(OCCCCOc2ccc(Cl)cc2)c(Cl)c1 measured_property="melting point" result="54.5 °C"
compound="C#Cc1ccc(C(O)C2C(c3ccccc3)CC(=O)N2C)s1 (configuration not stated)" measured_property="melting point" result="187 °C"
compound=CCCN(Cc1ccc(-c2ccccc2-c2nnn[nH]2)cc1)c1nc(C)nnc1C(=O)OCC measured_property="melting point" result="120 to 122 °C"
compound=CC(C)Cn1c(CNC(=O)OC(C)(C)C)c(-c2ccccc2)c2cc(-c3nc(C(=O)O)cs3)ccc2c1=O measured_property="melting point" result="213 to 214 °C"
compound=CCCCNC(=O)NCCOc1ccc2c(ccn2Cc2ccc(Cl)cc2)c1 measured_property="melting point" result="163 to 164 °C"
